The reported numbers originate from paper PMC11198769.

- tested.on: OR5P3 (Homo sapiens, UniProt Q8WZ94)
- Construct: Lucy tag (N); FLAG (N); Rho tag (N); expressed in transfected cells; host or cells: Flp-In T-REx-293 cells stably expressing RTP1S, Gαolf and Ric8-b
- Sequence (Q8WZ94 whole entry): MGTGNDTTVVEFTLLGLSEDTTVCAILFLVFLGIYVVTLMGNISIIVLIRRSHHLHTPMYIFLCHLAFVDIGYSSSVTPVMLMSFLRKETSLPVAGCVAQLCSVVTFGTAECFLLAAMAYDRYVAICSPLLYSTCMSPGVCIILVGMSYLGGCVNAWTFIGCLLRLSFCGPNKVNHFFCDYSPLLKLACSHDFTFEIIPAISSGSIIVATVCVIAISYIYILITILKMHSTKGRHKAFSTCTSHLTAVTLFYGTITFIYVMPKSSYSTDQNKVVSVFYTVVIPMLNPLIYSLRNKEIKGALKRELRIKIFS
- assay.method.text: hOR assay (GloSensor cAMP luciferase), dose-response
- Type: cell-based
- run.parameters: OR5P3/pHEK (with TAR-Tat system); read-out: EC50 of n-hexanal concentration-response relationship
value.kind: EC50
Number first, unit second: that is the form wanted.

Input line: Request body: readout EC50, system OR5P3 (Homo sapiens, UniProt Q8WZ94), query CCCCCC=O [n-hexanal] . Return the value.
Output line: 672 µM
